Tested on: Mycobacterium avium
MEASUREMENT PROTOCOL: Antimycobacterial activity against Mycobacterium avium CNCTC My 330/88 after 14 days by micromethod
Type: functional
TEST SETTINGS: CNCTC My 330/88, 336 h
EXPERIMENTAL READOUT: MIC (µM)
Number only, in µM; omit the unit.

{"columns": ["STRUCTURE NOTATION", "UNIT OF MEASUREMENT", "MIC"],
 "data": [
  ["NC(=S)c1ccc(CSc2nc3ccccc3o2)cc1", "µM", 32],
  ["Fc1ccc(CSc2nc3ccccc3o2)cc1F", "µM", 62],
  ["Clc1ccccc1CSc1nc2ccccc2o1", "µM", 125]
]}

# lookup: MIC of `N#Cc1cccc(CSc2nc3ccccc3o2)c1` 62

# lookup: MIC of `Brc1ccc(CSc2nc3ccccc3o2)cc1` 32

# lookup: MIC of `COc1ccc(CSc2nc3ccccc3o2)cc1` 32

---

Test system: HeLa
MEASUREMENT PROTOCOL: Cytotoxicity against human HeLa cells
Assay type: functional
The entries below come with measured CC50 values attached.

Observe how each entry below is paired with its result.
{"columns": ["STRUCTURE NOTATION", "SYSTEM NAME", "EXPERIMENTAL READOUT", "VALUE OBSERVED"],
 "data": [
  ["O=[N+]([O-])c1ccc(CSc2nc3ccccc3o2)c([N+](=O)[O-])c1", "HeLa", "CC50", "45.1 µg/mL"],
  ["O=[N+]([O-])c1cc(CSc2nc3ccccc3o2)cc([N+](=O)[O-])c1", "HeLa", "CC50", "> 50 µg/mL"],
  ["NC(=S)c1cccc(CSc2nc3ccccc3o2)c1", "HeLa", "CC50", "21.6 µg/mL"]
]}

# lookup: CC50 of `NC(=S)c1ccc(CSc2nc3ccccc3o2)cc1` 23.6 µg/mL

---

Test system: Mycobacterium kansasii
MEASUREMENT PROTOCOL: Antimycobacterial activity against Mycobacterium kansasii 6509/96 after 7 days by micromethod
Assay type: functional
TEST SETTINGS: 6509/96, 168 h
Rule: MIC below 30 µM gives yes. Equal to or above 30 µM gives no.

# strict comparison: is reported MIC < 30 µM? input = `Fc1ccc(CSc2nc3ccccc3o2)cc1F` no

# strict comparison: is reported MIC < 30 µM? input = `N#Cc1cccc(CSc2nc3ccccc3o2)c1` no

# strict comparison: is reported MIC < 30 µM? input = `c1ccc(CSc2nc3ccccc3o2)cc1` no

# strict comparison: is reported MIC < 30 µM? input = `Cc1ccc(CSc2nc3ccccc3o2)cc1` no

# strict comparison: is reported MIC < 30 µM? input = `FC(F)(F)c1cc(CSc2nc3ccccc3o2)cc(C(F)(F)F)c1` no

# strict comparison: is reported MIC < 30 µM? input = `Fc1ccccc1CSc1nc2ccccc2o1` no

---

System: L929
MEASUREMENT PROTOCOL: Growth inhibition of mouse L929 cells
Type: functional
The entries below come with measured GI50 values attached.
Number only, in µg/mL; omit the unit.

Observe how each entry below is paired with its result.
{"columns": ["STRUCTURE NOTATION", "EXPERIMENTAL READOUT", "VALUE OBSERVED"],
 "data": [
  ["O=[N+]([O-])c1cc(CSc2nc3ccccc3o2)cc([N+](=O)[O-])c1", "GI50", 22.4],
  ["NC(=S)c1cccc(CSc2nc3ccccc3o2)c1", "GI50", 17.3]
]}

# lookup: GI50 of `NC(=S)c1ccc(CSc2nc3ccccc3o2)cc1` 23.8

---

Test system: Mycobacterium avium
MEASUREMENT PROTOCOL: Antimycobacterial activity against Mycobacterium avium CNCTC My 330/88 after 14 days by micromethod
Format: functional
TEST SETTINGS: CNCTC My 330/88, 336 h
EXPERIMENTAL READOUT: MIC (µM)
Number only, in µM; omit the unit.

Observe how each entry below is paired with its result.
{"columns": ["STRUCTURE NOTATION", "MIC (µM)"],
 "data": [
  ["Brc1cccc(CSc2nc3ccccc3o2)c1", 32],
  ["N#Cc1ccc(CSc2nc3ccccc3o2)cc1", 62],
  ["FC(F)(F)c1ccc(CSc2nc3ccccc3o2)cc1", 62],
  ["Clc1cccc(CSc2nc3ccccc3o2)c1", 32],
  ["O=[N+]([O-])c1cccc(F)c1CSc1nc2ccccc2o1", 62]
]}

For the record `FC(F)(F)c1cccc(CSc2nc3ccccc3o2)c1` , what value of MIC is listed for Mycobacterium avium? 32

For the record `Clc1ccc(CSc2nc3ccccc3o2)cc1Cl` , what value of MIC is listed for Mycobacterium avium? 62

For the record `c1ccc(CSc2nc3ccccc3o2)cc1` , what value of MIC is listed for Mycobacterium avium? 62

For the record `Sc1nc2ccccc2o1` , what value of MIC is listed for Mycobacterium avium? 250

For the record `Fc1cccc(Cl)c1CSc1nc2ccccc2o1` , what value of MIC is listed for Mycobacterium avium? 62

---

The entries below come with measured MIC values attached.
System: Mycobacterium kansasii
MEASUREMENT PROTOCOL: Antimycobacterial activity against Mycobacterium kansasii 6509/96 after 7 days by micromethod
Format: functional
TEST SETTINGS: 6509/96, 168 h

Observe how each entry below is paired with its result.
{"columns": ["STRUCTURE NOTATION", "EXPERIMENTAL READOUT", "VALUE OBSERVED"],
 "data": [
  ["Brc1ccc(CSc2nc3ccccc3o2)cc1", "MIC", "32 µM"],
  ["FC(F)(F)c1cccc(CSc2nc3ccccc3o2)c1", "MIC", "32 µM"],
  ["N#Cc1ccc(CSc2nc3ccccc3o2)cc1", "MIC", "16 µM"]
]}

// next item, MIC requested
# lookup: MIC of `Clc1ccccc1CSc1nc2ccccc2o1` 62 µM

---

Tested on: Mycobacterium avium
MEASUREMENT PROTOCOL: Antimycobacterial activity against Mycobacterium avium CNCTC My 330/88 after 14 days by micromethod
Format: functional
TEST SETTINGS: CNCTC My 330/88, 336 h
The entries below come with measured MIC values attached.
Number only, in µM; omit the unit.

{"columns": ["STRUCTURE NOTATION", "SYSTEM NAME", "MIC, µM"],
 "data": [
  ["Fc1ccc(CSc2nc3ccccc3o2)cc1", "Mycobacterium avium", 62],
  ["Cc1ccc(CSc2nc3ccccc3o2)cc1", "Mycobacterium avium", 32]
]}

// next item, MIC requested
# lookup: MIC of `Clc1ccc(CSc2nc3ccccc3o2)cc1` 62

---

Test system: Mycobacterium kansasii
MEASUREMENT PROTOCOL: Antimycobacterial activity against Mycobacterium kansasii 6509/96 after 7 days by micromethod
Type: functional
TEST SETTINGS: 6509/96, 168 h
Rule: MIC below 30 µM gives 1.0. Equal to or above 30 µM gives 0.0.

{"columns": ["COMPOUND", "LABEL VALUE"],
 "data": [
  ["Fc1cccc(Cl)c1CSc1nc2ccccc2o1", 0.0],
  ["Brc1cccc(CSc2nc3ccccc3o2)c1", 0.0],
  ["FC(F)(F)c1ccc(CSc2nc3ccccc3o2)cc1", 1.0],
  ["NC(=S)c1ccc(CSc2nc3ccccc3o2)cc1", 1.0],
  ["COc1ccc(CSc2nc3ccccc3o2)cc1", 0.0]
]}

# strict comparison: is reported MIC < 30 µM? input = `COc1cccc(CSc2nc3ccccc3o2)c1` 0.0

# strict comparison: is reported MIC < 30 µM? input = NNC(=O)c1ccncc1 [ISONIAZID] 1.0

# strict comparison: is reported MIC < 30 µM? input = `O=[N+]([O-])c1ccc(CSc2nc3ccccc3o2)c([N+](=O)[O-])c1` 1.0

# strict comparison: is reported MIC < 30 µM? input = `O=[N+]([O-])c1cccc(F)c1CSc1nc2ccccc2o1` 0.0

# strict comparison: is reported MIC < 30 µM? input = `O=[N+]([O-])c1ccc(CSc2nc3ccccc3o2)cc1` 0.0

---

The entries below come with measured MIC values attached.
System: Mycobacterium avium
MEASUREMENT PROTOCOL: Antimycobacterial activity against Mycobacterium avium CNCTC My 330/88 after 14 days by micromethod
Type: functional
TEST SETTINGS: CNCTC My 330/88, 336 h
Number only, in µM; omit the unit.

{"columns": ["STRUCTURE NOTATION", "MIC, µM"],
 "data": [
  ["Fc1cccc(CSc2nc3ccccc3o2)c1", 32],
  ["Fc1ccccc1CSc1nc2ccccc2o1", 62],
  ["COc1cccc(CSc2nc3ccccc3o2)c1", 32],
  ["Cc1cccc(CSc2nc3ccccc3o2)c1", 62]
]}

// next item, MIC requested
# lookup: MIC of `NC(=S)c1cccc(CSc2nc3ccccc3o2)c1` 62
